experiment: SK-BR-3 cell growth inhibitors, pilot screen, 24 h, human (AID 572); conditions: SK-BR-3 viability, CellTiter-Glo luminescence, at 10 µM, stronger effect = lower value;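 note: compound exposure lasted between 18 and 24 h rather than exactly 24 h; 100% = carrier-treated control wells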
measured quantity: viability (%)
Write the number in % without appending the unit.

CN(C)c1nc(Oc2ccc(N)cc2)nc(N(C)C)n1 = 97
CC(C)Cn1c2c(c(O)c(C(=O)Nc3ncccc3O)c1=O)CCCC2 = 91

Input line: GET /values?readout=viability&item= COC(=O)CS(=O)(=O)c1nnc([C@H](Cc2ccccc2)NC(=O)OC(C)(C)C)o1
Output line: 77.5

Input line: Next record, please: CCCc1[nH]nc2c1C(c1cn[nH]c1-c1ccc(F)cc1)C(C#N)=C(N)O2 (stereo not drawn)
Output line: 98.5

Origin of measurements: PubChem BioAssay
